Test: in vivo
Conditions: male, C57BL/6, mouse, po, 1000 mg/kg
Observation type: concentration at 2 h (ng/mL)
Give your result in ng/mL as a bare value.

Record summary for CO[C@@H]1[C@@H](O)[C@@H](O)[C@H](Oc2ccc(CCNC(C)=O)c(-c3cccc(F)c3)c2)OC1(C)C : reported concentration at 2 h = 80.7

====

Experiment: Systemic exposure to 4a after single oral gavage (suspension) or loose-filled capsule in monkeys (plasma LC/MS/MS, PK)
Assay type: in vivo, male cynomolgus monkeys
Conditions: male, cynomolgus, cynomolgus monkey, plasma, oral, capsule 50 mg, 0.5 hr, read-out: 4a Plasma Concentration, mean (±SD)
Observation type: concentration at 0.5 h (ng/mL)
Give your result in ng/mL as a bare value.

Record summary for CO[C@@H]1[C@@H](O)[C@@H](O)[C@H](Oc2ccc(CCNC(C)=O)c(-c3cccc(F)c3)c2)OC1(C)C [amorphous 4a] : reported concentration at 0.5 h = 12.3

====

Assay: Systemic exposure to 4a after single oral gavage (suspension) or loose-filled capsule in monkeys (plasma LC/MS/MS, PK)
Format: in vivo, male cynomolgus monkeys
Settings: male, cynomolgus, cynomolgus monkey, plasma, oral, capsule 50 mg, 2 hr, BLQ values included as 1/2 LLOQ (0.200 ng/mL), read-out: 4a Plasma Concentration, mean (±SD)
Observation type: concentration at 2 h (ng/mL)
Give your result in ng/mL as a bare value.

Record summary for CO[C@@H]1[C@@H](O)[C@@H](O)[C@H](Oc2ccc(CCNC(C)=O)c(-c3cccc(F)c3)c2)OC1(C)C [amorphous 4a] : reported concentration at 2 h = 1.9

====

Assay: Systemic exposure to 4a after single oral gavage (suspension) or loose-filled capsule in monkeys (plasma LC/MS/MS, PK)
Format: in vivo, male cynomolgus monkeys
Conditions: male, cynomolgus, cynomolgus monkey, plasma, oral gavage suspension 30 mg/kg, 8 hr, read-out: 4a Plasma Concentration, mean (±SD)
Experimental: Dosing of Material A accounted for the presence of proline on a weight basis. Blood samples for plasma isolation were collected at […], 0.5, 1, 2, 4, 8, 12, and 24 hours post-dose from each monkey.
Observation type: concentration at 8 h (ng/mL)
Give your result in ng/mL as a bare value.

Record summary for CO[C@@H]1[C@@H](O)[C@@H](O)[C@H](Oc2ccc(CCNC(C)=O)c(-c3cccc(F)c3)c2)OC1(C)C : reported concentration at 8 h = 1.2

====

Test: in vivo
Settings: male, C57BL/6, mouse, po, 1000 mg/kg
Experimental: Blood samples for plasma isolation were collected at 0.25, 0.5, 1, 2, 4, 8, and 24 hours post-dose, using a separate group (n=5/group/time point) of mice for each time point, as summarized in Table 14 below. Plasma samples were analyzed for concentrations of 4a by LC/MS/MS methodology as described below. 4a was extracted from K3EDTA-fortified plasma samples using a protein precipitation method. […]
Observation type: concentration at 0.5 h (µg/mL)
Give your result in µg/mL as a bare value.

Record summary for CO[C@@H]1[C@@H](O)[C@@H](O)[C@H](Oc2ccc(CCNC(C)=O)c(-c3cccc(F)c3)c2)OC1(C)C : reported concentration at 0.5 h = 3.06

====

Assay: Systemic exposure to 4a after single oral gavage (suspension) or loose-filled capsule in monkeys (plasma LC/MS/MS, PK)
Type: in vivo, male cynomolgus monkeys
Details: male, cynomolgus, cynomolgus monkey, plasma, po, 50 mg capsule, read-out: AUC(0-t), mean (±SD)
Observation type: AUC(0-t)

Record summary for CO[C@@H]1[C@@H](O)[C@@H](O)[C@H](Oc2ccc(CCNC(C)=O)c(-c3cccc(F)c3)c2)OC1(C)C : reported AUC(0-t) = 81.6 ng·h/mL
